What IC50 was measured for each of the following?
- Assay target: BTK (Homo sapiens (Human), UniProt Q06187)
- Sequence (Q06187 whole entry): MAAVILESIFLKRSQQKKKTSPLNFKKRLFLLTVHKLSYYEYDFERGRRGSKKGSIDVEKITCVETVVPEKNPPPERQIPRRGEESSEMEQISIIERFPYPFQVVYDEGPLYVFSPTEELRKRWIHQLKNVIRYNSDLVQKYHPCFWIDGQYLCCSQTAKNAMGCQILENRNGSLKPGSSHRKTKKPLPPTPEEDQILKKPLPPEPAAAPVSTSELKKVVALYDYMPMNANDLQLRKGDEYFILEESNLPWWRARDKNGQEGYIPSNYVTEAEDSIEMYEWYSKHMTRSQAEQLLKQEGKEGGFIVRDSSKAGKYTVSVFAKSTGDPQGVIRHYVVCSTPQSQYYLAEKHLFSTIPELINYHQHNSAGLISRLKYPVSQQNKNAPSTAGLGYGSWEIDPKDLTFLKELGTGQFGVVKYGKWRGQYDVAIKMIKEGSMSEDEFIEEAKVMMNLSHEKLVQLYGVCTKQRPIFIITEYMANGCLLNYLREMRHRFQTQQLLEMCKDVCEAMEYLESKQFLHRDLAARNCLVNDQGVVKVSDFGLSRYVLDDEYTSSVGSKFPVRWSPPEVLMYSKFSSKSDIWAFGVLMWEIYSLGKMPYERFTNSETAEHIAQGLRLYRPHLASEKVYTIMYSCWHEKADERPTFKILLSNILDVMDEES
- Test details: BTK enzymatic activity assay (Caliper-based kinase assay)
- Applied conditions: human recombinant BTK 0.5 nM, ATP 16 μM, 3 h room temperature
Answer format: numeric, nM implied, no suffix.

Fill in: IC50 of CN(C)C(=O)C(C)(C)C=C(C#N)C(=O)N1CCC[C@@H](n2c(=O)n(-c3ccc(Oc4ccccc4)cc3)c3c(N)nccc32)C1 is ___
8.3

What measured IC50 goes with CC(C)(C=C(C#N)C(=O)N1CCC[C@@H](n2c(=O)n(-c3ccc(Oc4ccccc4)cc3)c3c(N)ncnc32)C1)N1CCN(C2COC2)CC1 ?
3.7

Fill in: IC50 of CC(C)(C=C(C#N)C(=O)N1CCC[C@@H](n2c(=O)n(-c3ccc(Oc4cccc(F)c4F)cc3)c3c(N)nccc32)C1)N1CCN(C2COC2)CC1 is ___
5.4

I am curious: what IC50 value has been reported for CC(=O)N1CCN(C(C)(C)C=C(C#N)C(=O)N2CCC[C@@H](n3c(=O)n(-c4ccc(Oc5ccccc5)cc4)c4c(N)nccc43)C2)CC1 ?
3.3

What measured IC50 goes with CN(C1COC1)C(C)(C)C=C(C#N)C(=O)N1CCC[C@H]1Cn1c(=O)n(-c2ccc(Oc3ccccc3)cc2)c2c(N)nccc21 ?
15.7

What measured IC50 goes with COC[C@H]1CCCN1C(C)(C)C=C(C#N)C(=O)N1CCC[C@@H](n2c(=O)n(-c3ccc(Oc4ccccc4)cc3)c3c(N)nccc32)C1 ?
5.9

Quick one: IC50 for N#CC(=CC1CCC1)C(=O)N1CCC[C@@H](n2c(=O)n(-c3ccc(Oc4ccccc4)cc3)c3c(N)nccc32)C1 ?
23.9

Please look up its IC50: CC(C)(C)OC(=O)N1CCN(C(C)(C)C=C(C#N)C(=O)N2CCC[C@@H](n3c(=O)n(-c4ccc(Oc5ccccc5)cc4)c4c(N)nccc43)C2)CC1
22.5

# IC50 lookup, item CN1CCN(C(=O)C(C)(C)C=C(C#N)C(=O)N2CCC[C@@H](n3c(=O)n(-c4ccc(Oc5ccccc5)cc4)c4c(N)nccc43)C2)CC1
12.8

Which IC50 is reported for this compound? CO[C@H]1CCN(C(C)(C)C=C(C#N)C(=O)N2CCC[C@@H](n3c(=O)n(-c4ccc(Oc5ccccc5)cc4)c4c(N)nccc43)C2)C1
2.6

Endpoint output: IC50 of CCC1(C=C(C#N)C(=O)N2CCC[C@@H](n3c(=O)n(-c4ccc(Oc5ccccc5)cc4)c4c(N)nccc43)C2)CCOCC1 . Value?
2.4

Reported IC50 for CC#CC(=O)N1CCC[C@H]1Cn1c(=O)n(-c2ccc(Oc3ccccc3)cc2)c2c(N)nccc21 : what is it?
25.9

Tell me the measured IC50 of CC(C)(C=C(C#N)C(=O)N1CCC[C@@H](n2c(=O)n(-c3ccc(Oc4ccccc4F)cc3)c3c(N)nccc32)C1)N1CCN(C2COC2)CC1 , please.
5.7

Fill in: IC50 of CC(C)(C=C(C#N)C(=O)N1CCC[C@@H](n2c(=O)n(-c3ccc(Oc4ccccc4)cc3)c3c(N)nccc32)C1)N1CCN(CC(F)(F)F)CC1 is ___
5.9

Quick one: IC50 of CN1CCN(C(C)(C)C=C(C#N)C(=O)N2CCC[C@@H](n3c(=O)n(-c4ccc(Oc5ccccc5)cc4)c4c(N)nccc43)C2)CC1=O ?
3.7

Sample CC(C)(N)C=C(C#N)C(=O)N1CCC[C@@H](n2c(=O)n(-c3ccc(Oc4ccccc4)cc3)c3c(N)nccc32)C1 — what was its IC50?
61.4

Look up IC50 for this compound: CC(C)(C=C(C#N)C(=O)N1CCC[C@@H](n2c(=O)n(-c3ccc(Oc4ccccc4)cc3)c3c(N)nccc32)C1)N1CCN(C2(C)COC2)CC1
1.5
